- tested.on: rat CYP2A2, Cyp2a2 (gene 24895)
- test: NVS_ADME_rCYP2A2: NovaScreen (NVS) CYP450-related Enzyme Activity (ADME) Assay for rat CYP2A2 (AID 2283116)
Activity calls are given as the source filed them. Rule for the calls: active = hit-call score of the fitted dose curve at least 0.9, where 1 is the maximum; inconclusive = response in the unintended direction; inactive = score below 0.9.
Outcomes: active, inactive

INSERT INTO assay_data (molecule, category_label) VALUES
  ('OC(c1ccc(Cl)cc1)(c1cncnc1)c1ccccc1Cl (stereo unspecified)', 'active'),
  ('CCOP(=S)(OCC)SCn1c(=O)oc2cc(Cl)ccc21', 'active'),
  ('CCCCOC(=O)c1ccccc1C(=O)OCCCC', 'inactive'),
  ('CCOC(=O)CC(SP(=S)(OC)OC)C(=O)OCC (stereo unspecified)', 'active'),
  ('CCNc1nc(Cl)nc(NC(C)C)n1', 'inactive'),
  ('N#CC(CCc1ccc(Cl)cc1)(Cn1cncn1)c1ccccc1 (stereo unspecified)', 'active');

====

- test: TOX21_p53_BLA_p4_viability: Viability Assessment in the Tox21 HCT-116 p53 Agonism Beta-lactamase Assay, Phase 4 (AID 2283597);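 note: hits lower the luminescence signal meaning cytotoxicity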
Inconclusive results are not listed. Active and inactive are the calls of the source. Rule for the calls: active = hit-call score of the fitted dose curve at least 0.9, where 1 is the maximum; inconclusive = response in the unintended direction; inactive = score below 0.9.
Outcomes: TRUE (active), FALSE (inactive)

INSERT INTO measurements (compound, category_label) VALUES
  ('Oc1ccccc1-c1ccccc1', 'FALSE'),
  ('CCON=C(CC)C1=C(O)CC(c2c(C)cc(C)cc2C)CC1=O (configuration not stated)', 'FALSE'),
  ('CC(C)C1(C)N=C(c2nc3ccccc3cc2C(=O)O)NC1=O (configuration not stated)', 'FALSE'),
  ('CC1=C(C(=O)Nc2ccccc2)SCCO1', 'FALSE'),
  ('CCOC(=O)CC(SP(=S)(OC)OC)C(=O)OCC (configuration not stated)', 'FALSE'),
  ('COc1ccc(C(c2ccc(OC)cc2)C(Cl)(Cl)Cl)cc1', 'FALSE'),
  ('Cc1ccc(-c2c(Cl)nc(C#N)n2S(=O)(=O)N(C)C)cc1', 'TRUE'),
  ('CCOP(=S)(OCC)SCn1c(=O)oc2cc(Cl)ccc21', 'FALSE'),
  ('CCCCC(CC)COC(=O)c1ccccc1C(=O)OCC(CC)CCCC (configuration not stated)', 'FALSE'),
  ('CC(Oc1ccc(Cl)cc1Cl)C(=O)O (configuration not stated)', 'FALSE'),
  ('COC(=O)N(OC)c1ccccc1COc1ccn(-c2ccc(Cl)cc2)n1', 'FALSE'),
  ('CNC(=O)ON=CC(C)(C)SC', 'FALSE');

====

- test: CCTE_Shafer_MEA_acute_per_network_burst_spike_number_std: CCTE's Neural Acute Assay for Standard Deviation of Number of Spikes in a Network Burst, Shafer Lab (AID 2284020);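 note: fitted for decrease in spike-number SD versus DMSO so actives lower it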
- Method: CCTE_Shafer_MEA_acute assay is conducted using Axion Biosystems 48 well microelectrode array (MEA) plates and Maestro recording system. Each well of the MEA plate contains a grid of 16 microelectrodes embedded in the culture surface. Electrically active cells, such as neurons, can be cultured over the electrodes, and electrical activity in these cells can be recorded extracellularly. […]
Calls of active or inactive are those of the source. Rule for the calls: active = hit-call score of the fitted dose curve at least 0.9, where 1 is the maximum; inactive = score below 0.9.
Outcomes: 1 (active), 0 (inactive)

INSERT INTO results (compound, category_label) VALUES
  ('CCCC1COC(Cn2cncn2)(c2ccc(Cl)cc2Cl)O1 (stereo unspecified)', 1),
  ('CC1COC(Cn2cncn2)(c2ccc(Oc3ccc(Cl)cc3)cc2Cl)O1 (stereo unspecified)', 1),
  ('Fc1ccc(Oc2ccnc3cc(Cl)cc(Cl)c23)cc1', 0),
  ('C=CCC1=C(C)[C@@H](OC(=O)[C@@H]2[C@@H](C=C(C)C)C2(C)C)CC1=O', 0),
  ('CNC(=O)ON=CC(C)(C)SC', 0),
  ('COC(=O)N(OC)c1ccccc1COc1ccn(-c2ccc(Cl)cc2)n1', 0);

====

- Read-out: Cyclin Dependent Kinase Inhibitor 1A (CDKN1A), CDKN1A (gene 1026)
- test: LTEA_HepaRG_CDKN1A: Life Technologies and Expression Analysis (LTEA) Assay for Cyclin Dependent Kinase Inhibitor 1A (CDKN1A) using HepaRG (AID 2283450)
- experimental.setup: mRNA level, 48 h; actives raise or lower the signal
Activity calls are given as the source filed them. Rule for the calls: active = hit-call score of the fitted dose curve at least 0.9, where 1 is the maximum; inactive = score below 0.9.
Outcomes: T for active, F for inactive

INSERT INTO results (molecule, category_label) VALUES
  ('C=CC1(C)OC(=O)N(c2cc(Cl)cc(Cl)c2)C1=O (stereo not drawn)', 'F'),
  ('CNC(=S)S', 'F'),
  ('N#CC(CCc1ccc(Cl)cc1)(Cn1cncn1)c1ccccc1 (stereo not drawn)', 'T'),
  ('CC(C)(C)c1ccc(CSc2cnn(C(C)(C)C)c(=O)c2Cl)cc1', 'T'),
  ('COc1ccc(C(c2ccc(OC)cc2)C(Cl)(Cl)Cl)cc1', 'F'),
  ('CS/C(C)=N/OC(=O)N(C)SN(C)C(=O)O/N=C(\C)SC', 'F'),
  ('CCNc1nc(Cl)nc(NCC)n1', 'F'),
  ('CCCCOC(=O)c1ccccc1C(=O)OCCCC', 'F'),
  ('O=C(Nc1ccccc1)Nc1ccnc(Cl)c1', 'T'),
  ('CCCCC(CC)COC(=O)c1ccccc1C(=O)OCC(CC)CCCC (stereo not drawn)', 'F'),
  ('CON(C)C(=O)Nc1ccc(Cl)c(Cl)c1', 'T'),
  ('COC(=O)c1ccccc1C(=O)OC', 'F'),
  ('N#Cc1cc(Br)c(O)c(Br)c1', 'T');

====

- Read-out: Urokinase-type plasminogen activator receptor (uPAR), PLAUR (gene 5329)
- test: BSK_4H_uPAR: BioMAP Diversity Plus: 4H Assay for Urokinase-type plasminogen activator receptor (uPAR) Biomarker Activity (AID 2283030)
- experimental.setup: primary human endothelial cells (HUVEC); actives raise or lower the signal
Calls of active or inactive are those of the source. How the source made its calls: active means hit-call score of the fitted dose curve at least 0.9, where 1 is the maximum; inactive means score below 0.9.
Outcomes: TRUE = active, FALSE = inactive

INSERT INTO assay_data (compound, category_label) VALUES
  ('CS/C(C)=N/OC(=O)N(C)SN(C)C(=O)O/N=C(\C)SC', 'TRUE'),
  ('COc1cnc(OC)n2nc(NS(=O)(=O)c3c(OCC(F)F)cccc3C(F)(F)F)nc12', 'FALSE'),
  ('C=CC1(C)OC(=O)N(c2cc(Cl)cc(Cl)c2)C1=O (stereo unspecified)', 'FALSE'),
  ('COP(=S)(OC)Oc1nc(Cl)c(Cl)cc1Cl', 'FALSE'),
  ('CCCN(CCC)c1c([N+](=O)[O-])cc(S(N)(=O)=O)cc1[N+](=O)[O-]', 'TRUE'),
  ('COc1nc(C)nc(NC(=O)NS(=O)(=O)c2ccccc2CCC(F)(F)F)n1', 'FALSE'),
  ('N#Cc1nn(-c2c(Cl)cc(C(F)(F)F)cc2Cl)c(N)c1S(=O)C(F)(F)F (stereo unspecified)', 'TRUE'),
  ('CCOP(=S)(OCC)SCn1c(=O)oc2cc(Cl)ccc21', 'FALSE'),
  ('CC(Oc1ccc(Cl)cc1Cl)C(=O)O (stereo unspecified)', 'FALSE'),
  ('Oc1ccccc1-c1ccccc1', 'FALSE'),
  ('CC(C)Oc1cc(-n2nc(C(C)(C)C)oc2=O)c(Cl)cc1Cl', 'FALSE');

====

- Read-out: Broad substrate specificity ATP-binding cassette transporter ABCG2 (Homo sapiens)
- test: CLD_ABCG2_48hr: CellzDirect (CLD) Gene Expression Assay for ABC Transporter (ABCG2) at 48 hours (AID 2283704)
- Protocol: CLD_48hr is a cell-based, multiplexed-readout assay that uses hepatocyte, a human liver primary cell, with measurements taken at 48 hours after chemical dosing in a 96-well plate.CLD_ABCG2_48hr is one of 16 assay component(s) measured or calculated from the CLD_48hr assay. […] Furthermore, this assay endpoint can be referred to as a primary readout. […]
Inconclusive results are not listed. Calls of active or inactive are those of the source. Rule for the calls: active = hit-call score of the fitted dose curve at least 0.9, where 1 is the maximum; inconclusive = response in the unintended direction; inactive = score below 0.9.
Outcomes: yes = active, no = inactive

INSERT INTO assay_data (molecule, category_label) VALUES
  ('CCOC(=O)CC(SP(=S)(OC)OC)C(=O)OCC (stereo not given)', 'no'),
  ('COC(=O)c1ccccc1C(=O)OC', 'no'),
  ('CO/C=C(/C(=O)OC)c1ccccc1Oc1cc(Oc2ccccc2C#N)ncn1', 'no'),
  ('Fc1ccc(Oc2ccnc3cc(Cl)cc(Cl)c23)cc1', 'no'),
  ('COP(=S)(OC)Oc1nc(Cl)c(Cl)cc1Cl', 'no'),
  ('COC(=O)C=C(C)OP(=O)(OC)OC', 'no'),
  ('O=C(O)COc1nc(Cl)c(Cl)cc1Cl', 'no'),
  ('Oc1ccccc1-c1ccccc1', 'no'),
  ('COc1nc(C)nc(NC(=O)NS(=O)(=O)c2ccccc2CCC(F)(F)F)n1', 'no'),
  ('CN(C)C(=S)SSC(=S)N(C)C', 'no'),
  ('CC(C)Oc1cc(-n2nc(C(C)(C)C)oc2=O)c(Cl)cc1Cl', 'no'),
  ('OC(c1ccc(Cl)cc1)(c1cncnc1)c1ccccc1Cl (stereo not given)', 'yes'),
  ('CCc1nn(C)c(C(=O)NCc2ccc(C(C)(C)C)cc2)c1Cl', 'yes'),
  ('Cc1c(F)c(F)c(COC(=O)C2C(/C=C(\Cl)C(F)(F)F)C2(C)C)c(F)c1F (stereo not given)', 'no'),
  ('Cc1cc(Cl)ccc1OCC(=O)O', 'no'),
  ('C=CCC1=C(C)C(OC(=O)C2C(C=C(C)C)C2(C)C)CC1=O (stereo not given)', 'no'),
  ('CCCCOC(=O)c1ccccc1C(=O)OCCCC', 'no'),
  ('COP(N)(=O)SC (stereo not given)', 'no'),
  ('CC(C)C1(C)N=C(c2nc3ccccc3cc2C(=O)O)NC1=O (stereo not given)', 'no'),
  ('CNC(=S)S', 'no'),
  ('N#CC(CCc1ccc(Cl)cc1)(Cn1cncn1)c1ccccc1 (stereo not given)', 'no'),
  ('CCCC1COC(Cn2cncn2)(c2ccc(Cl)cc2Cl)O1 (stereo not given)', 'no'),
  ('N#Cc1nn(-c2c(Cl)cc(C(F)(F)F)cc2Cl)c(N)c1S(=O)C(F)(F)F (stereo not given)', 'yes'),
  ('COc1nc(C)nc(NC(=O)NS(=O)(=O)c2ccccc2Cl)n1', 'no'),
  ('O=C(O)c1nc(Cl)ccc1Cl', 'no');
